Attribution: ChEMBL document CHEMBL1123349

# test_system: Adenosine receptors; A1 & A2 (Rattus norvegicus) (UniProt P29276+P25099+P30543)
# assay_remarks: Selectivity ratio was expressed as the ratio of binding affinity towards Adenosine A2 receptor to that of Adenosine A1 receptor in rat
Returns the class for an entry based on its Ratio. Class ranges: band A = under 3, band B = from 3 up to 10, band C = 10 and over

CCCn1c(=O)c2nc(-c3ccc(OC(C)=O)cc3)[nH]c2n(CCC)c1=O
band A
CCCn1c(=O)c2nc(-c3ccc(N)cc3N)[nH]c2n(CCC)c1=O
band A
CCCn1c(=O)c2nc(-c3ccc(F)cc3F)[nH]c2n(CCC)c1=O
band B

Ask: Each compound maps to one class by Ratio. Which class for CCCn1c(=O)c2[nH]c(-c3ccc(OC)cc3O)nc2n(CCC)c1=O ?
Result: band C

Ask: Further, for CCCn1c(=O)c2nc(-c3ccc(N)cc3)[nH]c2n(CCC)c1=O ?
Result: band A

Ask: Further, for CCCn1c(=O)c2nc(-c3cc(O)ccc3O)[nH]c2n(CCC)c1=O ?
Result: band B

###

# Ki per record follows
# test_system: Adenosine A2 receptor (Rattus norvegicus, UniProt P29276+P30543)
# assay_remarks: Binding affinity against A2 adenosine receptors of the central nervous system
# Format: protein assay
Respond with the bare value in nM.

CCCn1c(=O)c2nc(-c3ccc(OC(C)=O)cc3)[nH]c2n(CCC)c1=O
12
CCCn1c(=O)c2nc(-c3ccc(N)cc3)[nH]c2n(CCC)c1=O
28
CCCn1c(=O)c2nc(-c3ccc(S(=O)(=O)O)cc3)[nH]c2n(CCC)c1=O
710
CCCn1c(=O)c2nc(-c3ccc(N)cc3N)[nH]c2n(CCC)c1=O
13
CCCn1c(=O)c2nc(-c3ccc(N(C)C)cc3)[nH]c2n(CCC)c1=O
100
CCCn1c(=O)c2nc(-c3cccc(O)c3O)[nH]c2n(CCC)c1=O
210

Ask: Which Ki reading was recorded for the compound CCCn1c(=O)c2nc(-c3ccc(Cl)cc3N)[nH]c2n(CCC)c1=O ?
Result: 1000

Ask: Further, for CCCn1c(=O)c2[nH]c(-c3ccc(OC)cc3O)nc2n(CCC)c1=O ?
Result: 980

Ask: Further, for CCCn1c(=O)c2nc(-c3ccc(S(N)(=O)=O)cc3)[nH]c2n(CCC)c1=O ?
Result: 115

###

# test_system: Adenosine receptor A1 (Rattus norvegicus, UniProt P25099)
# Sequence (P25099 whole entry): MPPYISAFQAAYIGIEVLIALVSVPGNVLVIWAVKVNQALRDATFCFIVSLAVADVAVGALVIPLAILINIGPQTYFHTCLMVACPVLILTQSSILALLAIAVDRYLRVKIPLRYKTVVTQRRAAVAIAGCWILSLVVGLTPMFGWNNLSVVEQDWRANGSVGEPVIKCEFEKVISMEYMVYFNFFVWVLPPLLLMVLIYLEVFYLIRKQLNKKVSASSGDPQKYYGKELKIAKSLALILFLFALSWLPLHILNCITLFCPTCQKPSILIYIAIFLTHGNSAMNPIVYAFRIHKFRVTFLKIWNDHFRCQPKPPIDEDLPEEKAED
observable: Ki (nM)
Respond with the bare value in nM.

CCCn1c(=O)c2nc(-c3ccc(S(N)(=O)=O)cc3)[nH]c2n(CCC)c1=O
8.5
CCCn1c(=O)c2nc(-c3ccc(OC(C)=O)cc3)[nH]c2n(CCC)c1=O
8
CCCn1c(=O)c2[nH]c(-c3ccc(F)cc3F)nc2n(CCC)c1=O
51

Alright, here's another compound for you.
Ask: Which Ki reading was recorded for the compound CCCn1c(=O)c2nc(-c3ccc(Cl)cc3OC)[nH]c2n(CCC)c1=O ?
Result: 420

###

# test_system: Adenosine receptors; A1 & A2 (Rattus norvegicus) (UniProt P29276+P25099+P30543)
# assay_remarks: Selectivity ratio was expressed as the ratio of binding affinity towards Adenosine A2 receptor to that of Adenosine A1 receptor in rat
observable: Ratio
Hey, just send me the number, nothing else.

CCCn1c(=O)c2nc(-c3ccc(N(C)C)cc3)[nH]c2n(CCC)c1=O
2.2
CCCn1c(=O)c2nc(-c3ccc(O)c(Cl)c3)[nH]c2n(CCC)c1=O
3.9
CCCn1c(=O)c2nc(-c3cccc(O)c3O)[nH]c2n(CCC)c1=O
6.4
CCCn1c(=O)c2nc(-c3ccc(Cl)cc3N)[nH]c2n(CCC)c1=O
400
CCCn1c(=O)c2nc(-c3ccc(S(=O)(=O)O)cc3)[nH]c2n(CCC)c1=O
3.4

Alright, here's another compound for you.
Ask: Which Ratio reading was recorded for the compound CCCn1c(=O)c2nc(-c3ccc(S(N)(=O)=O)cc3)[nH]c2n(CCC)c1=O ?
Result: 15
